System: SARS-CoV-2 trVLP
Experiment: microbe, parasite or virus in culture
Conditions: Severe acute respiratory syndrome coronavirus 2, read-out: EC50 SARS-CoV-2 trVLP
ENDPOINT_NAME: EC50 (µM)
Respond numerically; units are µM and should not be typed.

{"COMPOUND": "COc1cc2c(cc1OC)[C@@H](Cc1ccc(Oc3cc(C[C@@H]4c5cc(OC)c(OC)cc5CCN4C)ccc3O)cc1)N(C)CC2", "ENDPOINT_NAME": "EC50", "RESULT": 2.84}

Attention now turns to another entry.
Query: Could you share which EC50 value was measured for COc1ccc2cc1Oc1ccc(cc1)C[C@H]1c3cc(c(OC)cc3CCN1C)Oc1c(OC)c(OC)cc3c1[C@H](C2)N(C)CC3 [Tetrandrine, reference compound] ?
Reply: 2.8

====

Test system: GX_P2V
Test: microbe, parasite or virus in culture
Type: cell-based, Guangxi pangolin-CoV (GX_P2V)
Details: Vero C1008, 48 h, read-out: Percentage of Inhibition (%)
Examples of molecules with documented inhibition at 0.193125 µM follow.
Respond numerically; units are % and should not be typed.

Worked examples follow.
{"MOLECULE": "NCCc1ccc(O)c(O)c1 [Compound 4, dopamine, reference compound]", "inhibition at 0.193125 µM (%)": 46.7}
{"MOLECULE": "COc1cc2c(cc1O)[C@@H](Cc1ccc(O)c(Oc3ccc(C[C@@H]4c5cc(OC)c(OC)cc5CCN4C)cc3)c1)N(C)CC2", "inhibition at 0.193125 µM (%)": 6.47}
{"MOLECULE": "COc1ccc2cc1Oc1ccc(cc1)C[C@H]1c3c(cc4c(c3Oc3cc5c(cc3OC)CCN(C)[C@@H]5C2)OCO4)CCN1C [Cepharanthine, reference compound]", "inhibition at 0.193125 µM (%)": 46.4}
{"MOLECULE": "COc1cc2c(cc1O)[C@@H](Cc1ccc(O)cc1)N(C)CC2 [(R)-N-Methylcolaurine]", "inhibition at 0.193125 µM (%)": 25.6}

Attention now turns to another entry.
Query: Could you share which inhibition at 0.193125 µM value was measured for COc1cc2c(cc1O)[C@H](Cc1ccc(O)cc1)N(C)CC2 [(S)-N-Methylcolaurine] ?
Reply: 17.4

====

Test system: GX_P2V
Test: microbe, parasite or virus in culture
Type: cell-based, Guangxi pangolin-CoV (GX_P2V)
Conditions: Vero C1008, 48 h, read-out: Percentage of Inhibition (%)
Examples of compounds with documented inhibition at 0.49485 µM follow.
Respond numerically; units are % and should not be typed.

{"COMPOUND": "COc1ccc(C[C@H]2c3cc(O)c(OC)cc3CCN2C)cc1O", "inhibition at 0.49485 µM [%]": 27.4}
{"COMPOUND": "COc1cc2c(cc1O)[C@@H]1Cc3ccc(OC)c(O)c3CN1CC2 [(S)-Scoulerine]", "inhibition at 0.49485 µM [%]": 24.5}

Query: Could you share which inhibition at 0.49485 µM value was measured for COc1ccc2cc1Oc1ccc(cc1)C[C@H]1c3c(cc4c(c3Oc3cc5c(cc3OC)CCN(C)[C@@H]5C2)OCO4)CCN1C [Cepharanthine, reference compound] ?
Reply: 77.8

====

Examples of molecules with documented pEC50 follow.
System: SARS-CoV pseudotyped virus
Experiment: microbe, parasite or virus in culture
Type: cell-based
Settings: Severe acute respiratory syndrome coronavirus, read-out: EC50 against SARS-CoV pseudotyped virus
Reminder that pEC50 is minus the log10 of a molar concentration.

Worked examples follow.
{"MOLECULE": "COc1ccc2cc1Oc1ccc(cc1)C[C@H]1c3c(cc4c(c3Oc3cc5c(cc3OC)CCN(C)[C@@H]5C2)OCO4)CCN1C [Cepharanthine, reference compound]", "TARGET": "SARS-CoV pseudotyped virus", "ENDPOINT_NAME": "pEC50", "RESULT": 5.86}
{"MOLECULE": "COc1ccc2cc1Oc1ccc(cc1)C[C@H]1c3cc(c(OC)cc3CCN1C)Oc1c(OC)c(OC)cc3c1[C@H](C2)N(C)CC3 [Tetrandrine, reference compound]", "TARGET": "SARS-CoV pseudotyped virus", "ENDPOINT_NAME": "pEC50", "RESULT": 5.52}
{"MOLECULE": "COc1cc2c(cc1O)[C@@H](Cc1ccc(O)c(Oc3ccc(C[C@@H]4c5cc(OC)c(OC)cc5CCN4C)cc3)c1)N(C)CC2", "TARGET": "SARS-CoV pseudotyped virus", "ENDPOINT_NAME": "pEC50", "RESULT": 5.56}
{"MOLECULE": "COc1cc2c3cc1Oc1c(OC)c(OC)cc4c1[C@@H](Cc1ccc(O)c(c1)Oc1ccc(cc1)C[C@@H]3N(C)CC2)N(C)CC4", "TARGET": "SARS-CoV pseudotyped virus", "ENDPOINT_NAME": "pEC50", "RESULT": 5.26}
{"MOLECULE": "COc1cc2c(cc1OC)[C@@H](Cc1ccc(Oc3cc(C[C@@H]4c5cc(OC)c(OC)cc5CCN4C)ccc3O)cc1)N(C)CC2", "TARGET": "SARS-CoV pseudotyped virus", "ENDPOINT_NAME": "pEC50", "RESULT": 5.58}

Attention now turns to another entry.
Query: Could you share which pEC50 value was measured for `COc1ccc2cc1Oc1ccc(cc1)C[C@H]1c3cc(c(OC)cc3CCN1C)Oc1c(O)c(OC)cc3c1[C@H](C2)N(C)CC3` ?
Reply: 5.76

====

Examples of molecules with documented inhibition at 1.097 µM follow.
Tested on: GX_P2V
Assay: microbe, parasite or virus in culture
Assay type: cell-based, Guangxi pangolin-CoV (GX_P2V)
Settings: Vero C1008, 48 h, read-out: Percentage of Inhibition (%)
Respond numerically; units are % and should not be typed.

Worked examples follow.
{"MOLECULE": "COc1ccc(C[C@@H]2c3cc(Oc4cc(C[C@@H]5c6cc(OC)c(OC)cc6CCN5C)ccc4O)c(OC)cc3CCN2C)cc1", "TARGET": "GX_P2V", "RESULT": 100}
{"MOLECULE": "COc1cc2c(cc1OC)C(Cc1ccc(O)c(Oc3cc4c(cc3OC)CCN(C)C4Cc3ccc(O)cc3)c1)N(C)CC2 (stereo not shown)", "TARGET": "GX_P2V", "RESULT": 87.3}
{"MOLECULE": "CCC(CC)COC(=O)[C@H](C)N[P@](=O)(OC[C@H]1O[C@@](C#N)(c2ccc3c(N)ncnn23)[C@H](O)[C@@H]1O)Oc1ccccc1 [Remdesivir (30), remdesivir, reference compound]", "TARGET": "GX_P2V", "RESULT": 99.8}

Attention now turns to another entry.
Query: Could you share which inhibition at 1.097 µM value was measured for COc1ccc2cc1Oc1ccc(cc1)CC1c3cc(c(OC)cc3CCN1C)Oc1c(OC)c(OC)c(O)c3c1C(C2)N(C)CC3 (stereo not shown) ?
Reply: 100

====

Examples of compounds with documented inhibition at 0.796 µM follow.
Tested on: GX_P2V
Assay: microbe, parasite or virus in culture
Format: cell-based, Guangxi pangolin-CoV (GX_P2V)
Details: Vero C1008, 48 h, read-out: Percentage of Inhibition (%)
Respond numerically; units are % and should not be typed.

Worked examples follow.
{"COMPOUND": "COc1cc2c(cc1OC)C(Cc1ccc(O)c(Oc3cc4c(cc3OC)CCN(C)C4Cc3ccc(O)cc3)c1)N(C)CC2 (stereo not shown)", "TARGET": "GX_P2V", "inhibition at 0.796 µM (%)": 74.4}
{"COMPOUND": "CCC(CC)COC(=O)[C@H](C)N[P@](=O)(OC[C@H]1O[C@@](C#N)(c2ccc3c(N)ncnn23)[C@H](O)[C@@H]1O)Oc1ccccc1 [Remdesivir (30), remdesivir, reference compound]", "TARGET": "GX_P2V", "inhibition at 0.796 µM (%)": 90.9}
{"COMPOUND": "COc1ccc2cc1Oc1ccc(cc1)CC1c3cc(c(OC)cc3CCN1C)Oc1c(OC)c(OC)c(O)c3c1C(C2)N(C)CC3 (stereo not shown)", "TARGET": "GX_P2V", "inhibition at 0.796 µM (%)": 99.8}

Attention now turns to another entry.
Query: Form entry - test system: GX_P2V; read-out: inhibition at 0.796 µM; compound: `COc1ccc(C[C@@H]2c3cc(Oc4cc(C[C@@H]5c6cc(OC)c(OC)cc6CCN5C)ccc4O)c(OC)cc3CCN2C)cc1`
Reply: 91.6

====

Examples of compounds with documented EC50 follow.
System: SARS-CoV-2 trVLP
Test: microbe, parasite or virus in culture
Settings: Severe acute respiratory syndrome coronavirus 2, read-out: EC50 SARS-CoV-2 trVLP
Respond numerically; units are nM and should not be typed.

{"COMPOUND": "COc1ccc2cc1Oc1ccc(cc1)C[C@H]1c3cc(c(OC)cc3CCN1C)Oc1c(O)c(OC)cc3c1[C@H](C2)N(C)CC3", "RESULT": 1930}
{"COMPOUND": "COc1ccc2cc1Oc1ccc(cc1)C[C@H]1c3c(cc4c(c3Oc3cc5c(cc3OC)CCN(C)[C@@H]5C2)OCO4)CCN1C [Cepharanthine, reference compound]", "RESULT": 1600}

Attention now turns to another entry.
Query: Could you share which EC50 value was measured for `COc1cc2c3cc1Oc1c(OC)c(OC)cc4c1[C@@H](Cc1ccc(O)c(c1)Oc1ccc(cc1)C[C@@H]3N(C)CC2)N(C)CC4` ?
Reply: 8150
